Target: T1, human GPVI protein, soluble extracellular domain (D1 and D2) (human, UniProt Q9HCN6 21-267)
T1 construct: extracellular domain; also called hGPVI; human glycoprotein VI
T1 sequence (looked up): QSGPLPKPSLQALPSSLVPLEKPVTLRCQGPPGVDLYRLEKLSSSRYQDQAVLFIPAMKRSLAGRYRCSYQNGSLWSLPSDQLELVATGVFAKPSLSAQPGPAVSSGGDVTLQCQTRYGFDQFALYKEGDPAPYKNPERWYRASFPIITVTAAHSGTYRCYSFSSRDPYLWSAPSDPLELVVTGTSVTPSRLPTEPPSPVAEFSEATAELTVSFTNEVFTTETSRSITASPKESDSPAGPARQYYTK
Assay: SPR (Biacore 3000), human GPVI immobilised, Fab analyte
Listing of entries alongside the reported Kd.
observation.type: Kd

binder: Fab 390-nG (recombinant non-glycosylated Fab of clone 390) (Fab, V domains shown, Chimeric Fab from HEK293: VL fused to human constant kappa (IGKC, Q502W4); also called ANTI-GPVI Fab 390-nG construct) VH: QVQLKESGPGLVAPSQSLSITCTVSGFSLTGYGVNWVRQPPGKGLEWLGMIWGDGSTDYQSTLKSRLSISKDNSKSQVFLKMNSLQTDDTARYYCARDLPMDYWGQGTSVTVSS VL: DIQMTQSPSSLSASLGGKVTITCKASQDINKYIAWYQHKPGKGPSLLIHYTSTLQPGIPSRFSGSGSGRDYSFSISNLEPEDIATYYCLQYANLLTFGGGTKLEIKR
readout.value: 0.2 nM
//
binder: humanized anti-GPVI Fab VL1/VH5 (Fab, V domains shown, Recombinant Fab: VH fused to CH1 of human IGHG1 (Q569F4), HC ends in DKTHT; VL fused to human constant kappa (Q502W4); also called VL1 with VH5) VH: QVQLQESGPGLVAPSQSLSITCTVSGFSLTGYGVNWVRQPPSRGLEWLGMIWGDGSTDYQSTLKSRLSISKDNSKSQVFLKMNSLTTDDTARYYCARDLPMDEWGQGTSVTVSS VL: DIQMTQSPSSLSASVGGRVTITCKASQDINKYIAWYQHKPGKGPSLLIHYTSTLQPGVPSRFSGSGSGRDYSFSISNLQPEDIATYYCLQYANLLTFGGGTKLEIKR
readout.value: 0.4 nM
//
binder: humanized anti-GPVI Fab VL3/VH4 (Fab, V domains shown, Recombinant Fab: VH fused to CH1 of human IGHG1 (Q569F4), HC ends in DKTHT; also called VL3 with VH4) VH: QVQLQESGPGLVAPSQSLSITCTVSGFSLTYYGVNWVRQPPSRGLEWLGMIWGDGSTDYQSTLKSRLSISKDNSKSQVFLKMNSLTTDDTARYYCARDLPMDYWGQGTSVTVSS VL: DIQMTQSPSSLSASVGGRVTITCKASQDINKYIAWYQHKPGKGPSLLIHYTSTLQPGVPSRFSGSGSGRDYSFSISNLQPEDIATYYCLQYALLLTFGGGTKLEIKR
readout.value: 0.3 nM
//
binder: humanized anti-GPVI Fab VL1/VH3 (Fab, V domains shown, Recombinant Fab: VH fused to CH1 of human IGHG1 (Q569F4), HC ends in DKTHT; VL fused to human constant kappa (Q502W4); also called VL1 with VH3) VH: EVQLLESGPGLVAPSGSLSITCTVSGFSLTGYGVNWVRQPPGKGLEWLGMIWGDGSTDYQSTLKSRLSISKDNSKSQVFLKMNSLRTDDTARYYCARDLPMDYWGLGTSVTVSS VL: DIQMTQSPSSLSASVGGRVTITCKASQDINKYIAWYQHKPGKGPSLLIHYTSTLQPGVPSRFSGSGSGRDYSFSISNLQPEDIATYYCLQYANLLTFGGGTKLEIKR
readout.value: 0.1 nM
//
binder: humanized anti-GPVI Fab VL1/VH1 (Fab, V domains shown, Recombinant Fab: VH fused to CH1 of human IGHG1 (Q569F4), HC ends in DKTHT; VL fused to human constant kappa (Q502W4); also called VL1 with VH1) VH: QVQLQESGPGLVAPSQSLSITCTVSGFSLTGYGVNWVRQPPSRGLEWLGMIWGDGSTDYQSTLKSRLSISKDTSKSQVFLKMNSLTTDDTARYYCARDLPMDYWGQGTSVTVSS VL: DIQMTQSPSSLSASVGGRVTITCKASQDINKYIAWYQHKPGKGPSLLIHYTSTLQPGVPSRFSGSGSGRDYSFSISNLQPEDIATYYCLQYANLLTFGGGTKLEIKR
readout.value: 0.4 nM
